systemTested: Histone deacetylase 2 (Homo sapiens, UniProt Q92769)
Sequence (Q92769 whole entry): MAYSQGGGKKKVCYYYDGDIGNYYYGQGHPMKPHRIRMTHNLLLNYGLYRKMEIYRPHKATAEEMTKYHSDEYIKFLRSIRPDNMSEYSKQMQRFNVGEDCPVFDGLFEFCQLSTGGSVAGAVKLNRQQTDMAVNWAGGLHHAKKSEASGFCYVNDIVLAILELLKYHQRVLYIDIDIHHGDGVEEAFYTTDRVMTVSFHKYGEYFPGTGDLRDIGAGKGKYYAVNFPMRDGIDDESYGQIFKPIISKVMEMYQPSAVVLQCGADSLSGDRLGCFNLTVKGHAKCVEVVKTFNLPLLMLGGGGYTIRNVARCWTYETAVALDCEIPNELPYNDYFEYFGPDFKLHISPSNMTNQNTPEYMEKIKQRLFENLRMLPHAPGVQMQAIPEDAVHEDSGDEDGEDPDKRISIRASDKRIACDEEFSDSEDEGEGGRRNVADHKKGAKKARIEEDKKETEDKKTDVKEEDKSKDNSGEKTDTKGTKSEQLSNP
assayNotes: Inhibition of recombinant human full length C-terminal Flag-tagged HDAC2 expressed in baculovirus infected Sf9 cells using ZMAL as substrate incubated for 90 mins by fluorometric method
Type: cell-based
Reported pIC50 values for a set of compounds
Remember, pIC50 is on a log scale: it is -log10 of the molar concentration.

The examples below pair each entry with its known result.
>>> value("CN(C)c1cccc2c(S(=O)(=O)N(CC(=O)NCc3ccccc3)Cc3ccc(C(=O)Nc4ccccc4N)cc3)cccc12")
6.18
>>> value("CN(C)c1cccc2c(S(=O)(=O)N(CCCCCC(=O)NO)CC(=O)NCc3ccccc3)cccc12")
7.09

Data request: Query: pIC50; subject: CN(C)c1cccc2c(S(=O)(=O)N(CC(=O)NCc3ccccc3)Cc3ccc(C(=O)NO)cc3)cccc12
Data returned: 5.46
